system: T1, cyno CD137-Fc (cynomolgus monkey; human, limits assumed, biotin-labeled)
T1 construct: whole entry 92 named; also called biotin-labeled cynomolgus monkey CD137 fused to human IgG1 Fc fragment; not shown: human IgG1 Fc fragment
T1 chain: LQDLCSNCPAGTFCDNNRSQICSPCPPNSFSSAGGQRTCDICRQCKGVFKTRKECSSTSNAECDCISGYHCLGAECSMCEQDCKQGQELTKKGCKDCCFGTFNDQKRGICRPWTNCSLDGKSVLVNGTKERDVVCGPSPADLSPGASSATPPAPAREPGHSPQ
assayText: bead ELISA, IgG on biotinylated antigen, luminescence;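 note: biotinylated antigen captured on streptavidin magnetic beads, then incubated with purified IgG at 50 ng/µL for 1 h at room temperature before detection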
reportedEndpoint: S/N ratio (cyno CD137-Fc/Fc)

Task: Look at this binder and give its reported S/N ratio (cyno CD137-Fc/Fc). DXDU01_3#051 (antibody, V domains shown, Human IgG1; light chain GLS3000 (kappa); also called dBBDu127) VH: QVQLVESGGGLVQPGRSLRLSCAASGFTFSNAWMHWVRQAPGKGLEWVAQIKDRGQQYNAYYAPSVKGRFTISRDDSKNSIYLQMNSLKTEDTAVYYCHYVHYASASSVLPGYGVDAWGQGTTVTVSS VL: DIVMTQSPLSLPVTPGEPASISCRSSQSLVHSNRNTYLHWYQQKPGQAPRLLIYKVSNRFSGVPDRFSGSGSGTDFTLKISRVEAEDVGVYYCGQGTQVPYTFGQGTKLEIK
Result: 3.73
